Assay: in vitro
Settings: simulated gi fluid, pH 6.8
value.kind: half-life at 50 µM (min)
Answer format: numeric, min implied, no suffix.

Query CC[C@H](C)[C@@H]1NC(=O)[C@H](Cc2ccc(O)cc2)NC(=O)[C@@H](N)CSSC[C@@H](C(=O)N2CCC[C@H]2C(=O)N[C@@H](CC(C)C)C(=O)NCC(N)=O)NC(=O)[C@H](CC(N)=O)NC(=O)[C@H](CCC(N)=O)NC1=O yields half-life at 50 µM of 8

---

Overview of reported SIF stability [fold OT] across a group of compounds:
Test: Stability in simulated intestinal fluid (SIF)
Settings: relative stability compared with SIF stability of oxytocin (8±1 min); SIF pH 6.8, pancreatin, 37° C.
*1 amine or outer side, *2 acyl side, *3 side chain or, on linkers, in order; H or OH if unused. Where a SMILES comes first, the peptide text is derived from it. Bridges are numbered along the chain shown (N, C = ends). [ ]: non-standard residue; d: D form. Gly(cPent) = N[C@H](C(=O)O)C1CCCC1; αMeL = CC(C)C[C@](C)(N)C(=O)O; X1 = O=C(CCC[*:2])[*:1]

Examples with their reported SIF stability [fold OT] follow.
compound	result
CC[C@H](C)[C@@H]1NC(=O)[C@H](Cc2ccc(OC)cc2)NC(=O)CCCSC[C@@H](C(=O)N2CCC[C@H]2C(=O)N[C@@H](CCCCNC(C)=O)C(=O)NCC(N)=O)NC(=O)[C@H](CC(N)=O)NC(=O)[C@H](CCC(N)=O)NC1=O [Compound 5] (Y(Me)IQNCPK(Ac)G-NH2; linker N-5 via X1)	>100 fold OT
CC[C@H](C)[C@@H]1NC(=O)[C@H](Cc2ccc(OC)cc2)NC(=O)CCCSC[C@@H](C(=O)N2CCC[C@H]2C(=O)N[C@@](C)(CC(C)C)C(=O)NCC(N)=O)NC(=O)[C@H](CC(N)=O)NC(=O)[C@H](CCC(N)=O)NC1=O [Compound 7] (Y(Me)IQNCP[αMeL]G-NH2; linker N-5 via X1)	>100 fold OT

Query COc1ccc(C[C@@H]2NC(=O)CCCSC[C@@H](C(=O)N3CCC[C@H]3C(=O)N[C@@H](CCCCNC(C)=O)C(=O)NCC(N)=O)NC(=O)[C@H](CC(N)=O)NC(=O)[C@H](CCC(N)=O)NC(=O)[C@H](C3CCCC3)NC2=O)cc1 [Compound 21] (Y(Me)[Gly(cPent)]QNCPK(Ac)G-NH2; linker N-5 via X1) yields SIF stability [fold OT] of >100 fold OT
